- experiment-notes: Toxicity in human MCF7 cells assessed as cell viability at 2.5 umol/L incubated for 24 hrs by MTT assay relative to control
- Assay type: cell-based
- condition-summary: dose 2.5 µmol/L, read-out: Activity
measured-parameter: viability at 24 h, 2.5 µM

Sample answers from the record:
>>> meas_value("O=C(/C=C/c1ccc(O)cc1)c1ccc(O)cc1O [ISOLIQUIRITIGENIN]")
"> 90%"
>>> meas_value("O=c1c2cc(O)c(O)cc2oc2cc(O)c([C@@H]3O[C@H](CO)[C@@H](O)[C@H](O)[C@H]3O)c(O)c12 [MANGIFERIN]")
"> 90%"

Task: Consider the molecule shown here: COc1cc(C2Oc3ccc([C@H]4Oc5cc(O)cc(O)c5C(=O)[C@@H]4O)cc3OC2CO)ccc1O (stereo partly drawn) What is its recorded viability at 24 h, 2.5 µM?
Output: > 90%
